Cited source: patent US20190161551A1

# Test Target: human TrkB expressed on HEK293/SRE-Luc/hTrkB cells (human, UniProt Q16620 32-822)
# Sequence (Q16620 32-822): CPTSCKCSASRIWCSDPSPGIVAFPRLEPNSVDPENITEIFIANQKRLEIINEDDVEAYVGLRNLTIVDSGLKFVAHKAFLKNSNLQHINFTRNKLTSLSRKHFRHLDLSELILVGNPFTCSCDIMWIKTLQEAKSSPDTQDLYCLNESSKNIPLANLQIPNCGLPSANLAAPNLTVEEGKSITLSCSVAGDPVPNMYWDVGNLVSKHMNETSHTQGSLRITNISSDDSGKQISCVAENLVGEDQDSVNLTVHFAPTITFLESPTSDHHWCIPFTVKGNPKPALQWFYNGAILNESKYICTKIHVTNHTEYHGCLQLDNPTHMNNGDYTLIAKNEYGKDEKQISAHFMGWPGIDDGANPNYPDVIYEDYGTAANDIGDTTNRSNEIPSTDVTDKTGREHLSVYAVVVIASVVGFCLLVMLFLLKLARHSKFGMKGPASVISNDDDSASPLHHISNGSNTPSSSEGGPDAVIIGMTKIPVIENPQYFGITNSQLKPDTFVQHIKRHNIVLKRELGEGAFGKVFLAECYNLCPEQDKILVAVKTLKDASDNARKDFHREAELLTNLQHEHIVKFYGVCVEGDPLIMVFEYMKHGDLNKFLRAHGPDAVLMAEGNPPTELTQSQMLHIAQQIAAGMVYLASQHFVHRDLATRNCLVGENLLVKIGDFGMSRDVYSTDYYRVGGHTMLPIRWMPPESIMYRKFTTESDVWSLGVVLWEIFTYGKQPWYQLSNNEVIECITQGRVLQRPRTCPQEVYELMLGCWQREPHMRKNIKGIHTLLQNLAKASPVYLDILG
# Measurement Notes: cell-based or functional assay
Parameter Measured: Activation (%), SRE-luciferase, 100 pM BDNF
Response body: numeric value in %, unit text excluded.

Write down Activation (%), SRE-luciferase, 100 pM BDNF measured for item M2aM14173N (antibody, mouse IgG2a, kappa, V domains shown, Anti-mouse TrkB antibody from hybridoma, mouse IgG2a Fc; also called surrogate anti-mouse TrkB antibody) VH: NVSLVESGGGSVKPGGSLQLSCAASGFTFSSSAMSWIRQTPEMRLEWVATISDRGSYTYYPDSVEGRFTISRDNAKNILYLQMSHLMSEDTAMYYCARGKGEKAYYTAFFAYWGQGSLVTVSA VL: DIQMTQSPASLSASVGETVTITCRASENIYSYLAWYQQKPGKSPHLLVHNAETLAEGVPSRFSGSGSGPQFSLKINSLQPGDSGTYYCQHHYSSPWTFGGGTKLEIKR
59

Write down Activation (%), SRE-luciferase, 100 pM BDNF measured for item M2aM14178N (antibody, mouse IgG2a, V domains shown, Anti-mouse TrkB antibody from hybridoma, mouse IgG2a Fc; also called surrogate anti-mouse TrkB antibody) VH: EVQLVESGGGLVKPGGSLKLSCTASGFTFSSYAMSWVRQTPEKRLEWVANISDGGTYTYYPDNIKGRFTISRDNAKNNLYLQMSHLESEDTAMYYCIRGDVYYVRFAYWGQGTLVTVSA VL: QAVVTQESALTTSPGETVTLTCRSSTGAVTSSNHANWVQEKPDHLFTGLIGGTNNRAPGVPARFSGSLIGDKAALTITGAQTEDEAIYFCALWHSNHWVFGGGTKLTVLG
52

Write down Activation (%), SRE-luciferase, 100 pM BDNF measured for item H1M8037C (antibody, mouse IgG1, kappa, V domains shown, captured by anti-mFc in SPR; also called Comparator; comparator anti-TrkB monoclonal antibody) VH: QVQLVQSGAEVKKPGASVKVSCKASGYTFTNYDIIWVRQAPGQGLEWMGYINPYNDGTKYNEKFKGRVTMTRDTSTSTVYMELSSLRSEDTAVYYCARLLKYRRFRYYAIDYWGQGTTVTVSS VL: DIQMTQSPSSLSASVGDRVTITCRTSENVYSNLAWYQQKPGKAPKLLIYAASNLQSGVPSRFSGSGSGTDYTFTISSLQPEDIATYYCQHFWGSPFTFGQGTKLEIKR
79

Write down Activation (%), SRE-luciferase, 100 pM BDNF measured for item M2aM14179N (antibody, mouse IgG2a, kappa, V domains shown, Anti-mouse TrkB antibody from hybridoma, mouse IgG2a Fc; also called surrogate anti-mouse TrkB antibody) VH: EVQLQQSGPELVKPGASVKISCKASGYTLTDYYMNWVKQSHGKSLEWIGDINPNNGGTSYNQKFKGKATLTVDKSSSTAYMELRSLTSEDSAVYYCARGAYYSNYFDYWGQGTTLTVSS VL: DIVMSQSPSSLAVSAGEKVTMSCKSSQSLLNSRTRKNYLAWYQQKPGQSPKLLIYWASTRESGVPDRFTGSGSGTDFTLTISSVQAEDLAVYYCKQSYILFTFGSGTQLEIKR
52
